tested on: MDA-MB-231 (human triple-negative breast cancer cells); test: MTT viability assay / IC50 determination in MDA-MB-231 cells; format: cell-based; conditions: 10 or 20 μM, 48 h, Figure S74
Measured metric: cytotoxicity (viability of MDA cells), MTT assay

Compound | Target | Assay result
C=Cc1cc(O)cc2c1-c1cc(-c3cc4c(c(C)c3O)CCc3cc(O)cc(C=C)c3-4)c(O)c(C)c1CC2 | MDA-MB-231 (human triple-negative breast cancer cells) | cytotoxic
C=Cc1cc(O)c(Cc2c(O)cc(C=C)c3c2ccc2c(C)c(O)ccc23)c2c1-c1ccc(O)c(C)c1CC2 | MDA-MB-231 (human triple-negative breast cancer cells) | cytotoxic
Cc1c(O)ccc2c1CCc1cc(O)cc(C3CC=Cc4c5c(cc(O)c43)CCc3c-5ccc(O)c3C)c1-2 (centres unmarked) | MDA-MB-231 (human triple-negative breast cancer cells) | cytotoxic
